B1: TPR t1 (parent)
chain: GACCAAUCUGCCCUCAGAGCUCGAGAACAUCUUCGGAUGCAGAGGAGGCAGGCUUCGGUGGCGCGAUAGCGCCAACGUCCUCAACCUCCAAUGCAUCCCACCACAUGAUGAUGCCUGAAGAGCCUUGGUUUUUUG

Variants of: B1
Assay Notes: polymerase ribozyme fitness, log enrichment relative to wild type (log ratio); higher = more active; in vitro selection for triplet polymerase activity
I would appreciate it if you labelled entries YES when polymerase ribozyme fitness (log ratio) is -2 or higher, otherwise NO.

Examples with answers:
C53G C64U G110U; NO
A74C C82U A95C; YES
C22A G51C C72A; NO
A29U C53U C72G A83U U96A; NO

Data request: Hi team, for C11A G17C U55C C88U U131G , is the recorded polymerase ribozyme fitness (log ratio) at or above -2?
Data returned: NO

Data request: Hi team, for U9G A16U C82U C88U A95U U130G , is the recorded polymerase ribozyme fitness (log ratio) at or above -2?
Data returned: YES

Data request: Hi team, for C70G C124U U130C , is the recorded polymerase ribozyme fitness (log ratio) at or above -2?
Data returned: YES

Data request: Hi team, for G71A U96A U116A , is the recorded polymerase ribozyme fitness (log ratio) at or above -2?
Data returned: NO

Data request: Hi team, for G44U G69U , is the recorded polymerase ribozyme fitness (log ratio) at or above -2?
Data returned: YES

Data request: Hi team, for U87A G120A , is the recorded polymerase ribozyme fitness (log ratio) at or above -2?
Data returned: YES

Data request: Hi team, for U9G C28U C56A C114U A118U U125G U132A , is the recorded polymerase ribozyme fitness (log ratio) at or above -2?
Data returned: NO

Where do the numbers come from? From the RNAGym collection of RNA variant scans (doi:10.1073/pnas.2313332121).
